- PROCEDURE DETAILS: Inhibition of bovine tubulin polymerization after 20 mins by spectrophotometry
- Set-up: species or system Bos taurus
READOUT NAME: IC50 (µg/mL)

Reference set, count: 5
INSERT INTO assay_data (molecule, readout_name, assay_result) VALUES
  ('O=C(/C=C/c1cc(Br)ccc1Oc1c([N+](=O)[O-])cc(C(F)(F)F)cc1[N+](=O)[O-])c1ccc(Br)cc1', 'IC50', 6.25),
  ('O=C(/C=C/c1cc(Br)cc(Br)c1Oc1c([N+](=O)[O-])cc(C(F)(F)F)cc1[N+](=O)[O-])c1ccc(Br)cc1', 'IC50', 10.01),
  ('COc1ccc(C(=O)/C=C/c2cc(Cl)cc(Cl)c2Oc2c([N+](=O)[O-])cc(C(F)(F)F)cc2[N+](=O)[O-])cc1', 'IC50', 6.56),
  ('O=C(/C=C/c1cc(Cl)ccc1Oc1c([N+](=O)[O-])cc(C(F)(F)F)cc1[N+](=O)[O-])c1ccc(Cl)cc1', 'IC50', 4.68),
  ('O=C(/C=C/c1cc(Cl)ccc1Oc1c([N+](=O)[O-])cc(C(F)(F)F)cc1[N+](=O)[O-])c1ccc(Br)cc1', 'IC50', 4.62);

[P] Cc1ccc(C(=O)/C=C/c2cc(Cl)cc(Cl)c2Oc2c([N+](=O)[O-])cc(C(F)(F)F)cc2[N+](=O)[O-])cc1
[Q] O=C(/C=C/c1cc(Br)cc(Br)c1Oc1c([N+](=O)[O-])cc(C(F)(F)F)cc1[N+](=O)[O-])c1ccc(Cl)cc1
Problem: Given the entries P and Q , determine which has the lower reported IC50. The response must carry the label of the picked entry.
P
(P: 4.87 µg/mL, Q: 12.6 µg/mL)
